test system: RXF 393 renal; assay: NCI tumour cell line growth inhibition, 48 h
Please provide measured TGI for the entries that follow.

input: Fill blank: measured TGI of the compound "O=C1c2c(n(Cc3ccccc3)c(=O)n2Cc2ccccc2)C(=O)N1Cc1ccccc1" is ____.
output: > 100 µM

State the recorded TGI for every item in the following list.
1. COC(=O)/C=C(/C(=O)OC)c1c(C)c(C)c2c(C)cc(C)cc(C)c1-2
2. C(=C\c1ccccc1)/C=N/c1nc2cc3sc(/N=C/C=C/c4ccccc4)nc3cc2s1
3. COc1cc2c(cc1O)CC13CCC(=O)N1CCc1cc(OC)c(O)c-2c13 (centres undefined)

output:
1. > 100 µM
2. > 100 µM
3. > 68.1 µM

* * *

system: KM12 colon; experiment: NCI tumour cell line growth inhibition, 48 h
measure: TGI

# count of solved cases: 2
input: Fill blank: measured TGI of the compound "O=c1[nH]nc(-c2ccccc2)n1/N=C/c1c(O)ccc2ccccc12" is ____.
output: > 100 µM

input: Fill blank: measured TGI of the compound C#Cc1c(C(N)=O)ncn1C1OC(COP(=O)(OCc2ccc([N+](=O)[O-])o2)N(C)CCCCCl)C(O)C1O (configuration not stated) is ____.
output: > 100 µM

State the recorded TGI for every item in the following list.
1. COc1cccc(Cc2c3cc(OC)ccc3cc[n+]2C)c1
2. COc1ccccc1NC(=O)C1=C(C)NC(C)=C(C(=O)Nc2ccccc2OC)C1c1ccc(C)cc1
3. CCOC(=O)/C=C(/C(=O)OCC)n1cc(C)c(=O)n(Cc2cn(COCCOC(C)=O)nn2)c1=O
4. O=C1C=C(Br)c2c(Br)sc(Br)c21
5. NC1=NC(c2ccc(Cl)cc2)C2=C(N1)/C(=C/c1ccc(Cl)cc1)CCC2 (configuration not stated)

output:
1. > 100 µM
2. > 100 µM
3. > 62.9 µM
4. 37.3 µM
5. 5.27 µM

State the recorded TGI for every item in the following list.
1. CC(=O)O[C@]12CCCC1C1(O)C(O)CCCC12 (some centres not stated)
2. COc1ccc2nc3cc(Cl)ccc3c(NCCCNCCC(C)O)c2c1 (configuration not stated)
3. CCN(c1ccc(Br)cc1)c1c(Br)c(=O)nc2ccccn12
4. O=c1[nH]cnc2[nH]ncc12
5. Cc1sc(/N=C/c2c[nH]c3ccccc23)c(C#N)c1C

output:
1: > 100 µM; 2: 1.98 µM; 3: > 100 µM; 4: > 5000 µM; 5: > 100 µM

* * *

tested on: SF-539 CNS; assay: NCI tumour cell line growth inhibition, 48 h
Please provide measured TGI for the entries that follow.
One number for each entry, in µM.

# count of solved cases: 5
input: Form field - read-out: TGI; system: SF-539 CNS; submitted item: CCCCCCCCCCCCCCCCCCNc1ccn(C2OC(COP(=O)(O)OCC3OC(n4cc(C)c(=O)[nH]c4=O)CC3N=[N+]=[N-])C(O)C2O)c(=O)n1 (centres undefined)
output: 33.8

input: Form field - read-out: TGI; system: SF-539 CNS; submitted item: "CN1CCN(Cc2ccc(NC(=O)c3ccc(C#Cc4c(N)ncc5ccc(F)cc45)cc3)cc2C(F)(F)F)CC1"
output: 1.78

input: Form field - read-out: TGI; system: SF-539 CNS; submitted item: "COc1cc(/C=C2\CN(C)C/C(=C\c3cc(CN4CCCCC4)c(O)c(OC)c3)C2=O)cc(CN2CCCCC2)c1O"
output: 8.17

input: Form field - read-out: TGI; system: SF-539 CNS; submitted item: "CN(C)CCSC(=Nc1ccccc1)N1CCCCC1"
output: 38.1

input: Form field - read-out: TGI; system: SF-539 CNS; submitted item: "O=C(Nc1ccc(Cl)cc1)c1cc(-c2ccc(Cl)cc2)c2sc(=O)[nH]c2n1"
output: 11.6

State the recorded TGI for every item in the following list.
1. C=C1C(=O)O[C@H]2[C@H]1CC/C(COC(=O)CSCC(=O)OC/C1=C/CC[C@@]3(C)O[C@H]3[C@H]3OC(=O)C(=C)[C@@H]3CC1)=C\CC[C@@]1(C)O[C@@H]21
2. C=C1C(=O)O[C@H]2[C@H]1CC/C(COC(=O)NCCc1c[nH]c3ccc(OC)cc13)=C\CC[C@@]1(C)O[C@@H]21

output:
1. 5.08
2. 4.01

* * *

system: IGROV1 ovarian; experiment: NCI tumour cell line growth inhibition, 48 h
measure: TGI

# count of solved cases: 4
input: Form field - read-out: TGI; system: IGROV1 ovarian; submitted item: COc1cc2cc(C(=O)N3CC(COS(C)(=O)=O)c4c3cc(N)c3ccccc43)[nH]c2c(OC)c1OC (configuration not stated)
output: > 100 µM

input: Form field - read-out: TGI; system: IGROV1 ovarian; submitted item: "CCOC(=O)/C=C/C(C(=O)/C=C/c1ccc(O)c(OC)c1)=C(O)\C=C\c1ccc(O)c(OC)c1"
output: 93.8 µM

input: Form field - read-out: TGI; system: IGROV1 ovarian; submitted item: CO[C@@H]1CC(=O)C2(CC(=O)O[C@@H]2/C=C(\C)CCC=C(C)C)C[C@@H]1O (some centres not stated)
output: 4.03 µM

input: Form field - read-out: TGI; system: IGROV1 ovarian; submitted item: "Cc1ccc(-c2cc(C3=CC(=O)C=CC3=O)n(-c3ccc(S(N)(=O)=O)cc3)n2)cc1"
output: > 100 µM

State the recorded TGI for every item in the following list.
1. O=C(O)c1cc(N=Cc2ccccc2O)cc(C(=O)O)c1
2. CCOC(=O)/C=C(/C(=O)OCC)n1cc(C)c(=O)n(Cc2cn(COCCOC(C)=O)nn2)c1=O
3. C=CCC(N[C@H](CO)c1ccccc1)c1cn(C(=O)OCC)c2ccccc12 (some centres not stated)
4. Cc1ccc2c(O)c(O)cc(NC(C)CCCN)c2n1 (configuration not stated)
5. O=C(OCc1ccccc1)C1(N2CN(C3(C(=O)OCc4ccccc4)CCCC3)CN(C3(C(=O)OCc4ccccc4)CCCC3)C2)CCCC1

output:
> 100 µM
32.1 µM
26.3 µM
47.7 µM
> 10 µM

* * *

system: EKVX NSCLC; test: NCI tumour cell line growth inhibition, 48 h
Where a SMILES comes first, the peptide text is derived from it. The star is where a group is joined. Boc = CC(C)(C)OC(=O)*; OBn = c1ccc(CO*)cc1
measure: TGI

# count of solved cases: 5
input: Fill blank: measured TGI of the compound "O=c1[nH]cnc2[nH]ncc12" is ____.
output: > 5000 µM

input: Fill blank: measured TGI of the compound "Cc1sc(/N=C/c2c[nH]c3ccccc23)c(C#N)c1C" is ____.
output: > 100 µM

input: Fill blank: measured TGI of the compound "c1ccc(-n2nnnc2-c2cccc3ccccc23)cc1" is ____.
output: > 100 µM

input: Fill blank: measured TGI of the compound C=CCC(N[C@H](CO)c1ccccc1)c1cn(C(=O)OCC)c2ccccc12 (some centres undefined) is ____.
output: 37.3 µM

input: Fill blank: measured TGI of the compound "O=S1(=O)c2ccccc2C(=NO)c2ccccc21" is ____.
output: > 100 µM

State the recorded TGI for every item in the following list.
1. Fc1ccc(C2SCc3nc4ccccc4n32)cc1 (centres undefined)
2. COC(=O)/C=C/c1cc(O)c2c(c1)[C@H](C(=O)OC)[C@@H](c1ccc(O)c(O)c1)O2
3. Cc1cn(CC2=NCC(C)(C)N2)c(=O)[nH]c1=O
4. O=C(Cc1cccc(OC(F)(F)F)c1)Nc1ccc(CCCCc2nnc(NC(=O)Cc3ccccn3)s2)nn1
5. CC(NC(=O)C(NC(=O)OC(C)(C)C)C(C)C)C(=O)N1CCCC1C(=O)NCC(=O)NC(C(=O)NCC(=O)OCc1ccccc1)C(C)C (centres undefined) (Boc-VAPGVG-OBn; configuration not given here)
6. O=C(Nc1ccc(Cl)cc1)c1cc(-c2ccc(Cl)cc2)c2sc(=O)[nH]c2n1
7. CC1=CCC23C(C1)OC(Br)(C=CC2(C)O)C3(C)C (centres undefined)

output:
> 100 µM
> 85 µM
> 100 µM
68.7 µM
> 100 µM
11.7 µM
> 100 µM

State the recorded TGI for every item in the following list.
1. COc1ccc(C(=O)c2cc3c(OC)c(OC)c(OC)cc3[nH]2)cc1
2. C=CCC1(O)c2cccc(NCCO)c2C(=O)c2c(NCCO)cccc21

output:
1: > 100 µM; 2: > 100 µM

* * *

test system: BT-549 breast; experiment: NCI tumour cell line growth inhibition, 48 h
Please provide measured TGI for the entries that follow.

# count of solved cases: 3
input: Fill blank: measured TGI of the molecule COC(=O)/C=C1\CCC(C)(C(=O)NS(=O)(=O)c2ccc(C)cc2)C1(C)C (stereo unspecified) is ____.
output: > 100 µM

input: Fill blank: measured TGI of the molecule "C=CCSC1=N/C(=C\c2ccccc2)C(=O)N1CC=C" is ____.
output: > 100 µM

input: Fill blank: measured TGI of the molecule Cc1ccc(C(C2C(=O)N(C)C(=O)N(C)C2=O)C(F)(F)C(=O)N(C)C)cc1 (stereo unspecified) is ____.
output: > 100 µM

State the recorded TGI for every item in the following list.
1. Cc1ccnc2[nH]c(-c3ccccc3)cc(=O)c12
2. O=c1[nH]cnc2[nH]ncc12
3. COC(OC)C1OC(CO)C(n2ccc(N)nc2=O)C1O (stereo unspecified)

output:
1: > 100 µM; 2: > 5000 µM; 3: > 100 µM
